Target: CD59 (Homo sapiens, UniProt P13987)
Construct: Recombinant soluble human CD59 with an additional C-terminal cysteine residue
Sequence (P13987 26-102 limits assumed): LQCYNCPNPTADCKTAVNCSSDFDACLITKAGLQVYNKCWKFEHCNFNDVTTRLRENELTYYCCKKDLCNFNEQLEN
Experiment: SPR (Biacore S200) binding to immobilised biotinylated CD59
Details: SPR, immobilized CD59, average of three technical replicates ± SEM; read-out: KD (nM) ± SEM
Peptide text beside a SMILES is read from it.
measured_property: Kd (nM)
Numeric only. Scale: nM

Consider the reported Kd for these compounds:
compound	result_value
CC[C@H](C)[C@@H]1NC(=O)[C@H](CCC(N)=O)NC(=O)[C@H](CCCNC(=N)N)NC(=O)[C@H](CC(N)=O)NC(=O)CNC(=O)[C@H](Cc2c[nH]c3ccccc23)NC(=O)[C@H](C)NC(=O)[C@H](CO)NC(=O)[C@@H](Cc2ccc(O)cc2)NC(=O)CSC[C@@H](C(N)=O)NC(=O)[C@H](Cc2ccc(O)cc2)NC(=O)[C@H](Cc2ccc(O)cc2)NC(=O)[C@H](CCC(N)=O)NC1=O [CP-03] (HELM PEPTIDE1{[O=C(C[*:3])[*:2]].[dY].S.A.W.G.N.R.Q.I.Q.Y.Y.C.[am]}$PEPTIDE1,PEPTIDE1,1:R3-14:R3$$$V2.0)	23.4
C[C@@H]1NC(=O)[C@H](CO)NC(=O)[C@@H](Cc2ccc(O)cc2)NC(=O)CSC[C@@H](C(N)=O)NC(=O)[C@H](Cc2ccc(O)cc2)NC(=O)[C@H](Cc2ccc(O)cc2)NC(=O)[C@H](CCC(N)=O)NC(=O)[C@H]([C@@H](C)O)NC(=O)[C@H](CCC(N)=O)NC(=O)[C@H](CCCNC(=N)N)NC(=O)[C@H](CC(N)=O)NC(=O)CNC(=O)[C@H](Cc2c[nH]c3ccccc23)NC1=O [CP-13] (HELM PEPTIDE1{[O=C(C[*:3])[*:2]].[dY].S.A.W.G.N.R.Q.T.Q.Y.Y.C.[am]}$PEPTIDE1,PEPTIDE1,1:R3-14:R3$$$V2.0)	10.8

I'd like to know its Kd. The compound in question is CC(C)[C@@H]1NC(=O)[C@H](Cc2ccccc2)NC(=O)[C@@H](Cc2ccc(O)cc2)NC(=O)CSC[C@@H](C(N)=O)NC(=O)CNC(=O)[C@H](CCCNC(=N)N)NC(=O)[C@H]([C@@H](C)O)NC(=O)[C@H](Cc2c[nH]cn2)NC(=O)[C@H](CC(=O)O)NC(=O)[C@H](CCCNC(=N)N)NC(=O)[C@H](CC(N)=O)NC(=O)CNC(=O)[C@H]([C@@H](C)O)NC1=O [CP-02] (HELM PEPTIDE1{[O=C(C[*:3])[*:2]].[dY].F.V.T.G.N.R.D.H.T.R.G.C.[am]}$PEPTIDE1,PEPTIDE1,1:R3-14:R3$$$V2.0)
15.3

I'd like to know its Kd. The compound in question is CC(C)[C@@H]1NC(=O)[C@H](Cc2c[nH]cn2)NC(=O)[C@@H](Cc2ccc(O)cc2)NC(=O)CSC[C@@H](C(N)=O)NC(=O)CNC(=O)[C@H](CCCNC(=N)N)NC(=O)[C@H]([C@@H](C)O)NC(=O)[C@H](Cc2ccccc2)NC(=O)[C@H](CO)NC(=O)[C@H](CCCNC(=N)N)NC(=O)[C@H](CC(N)=O)NC(=O)CNC(=O)[C@H](Cc2ccccc2)NC1=O [CP-04] (HELM PEPTIDE1{[O=C(C[*:3])[*:2]].[dY].H.V.F.G.N.R.S.F.T.R.G.C.[am]}$PEPTIDE1,PEPTIDE1,1:R3-14:R3$$$V2.0)
11.9
